# Species: Homo sapiens
# TEST_DETAILS: Binding affinity to hairpin 5'-FAM-TATAGCTATAT7ATAGCTATA-TAMRA-3' (unknown origin) assessed as melting temperature at 1 uM by FRET assay
Listed compounds paired with reported ΔTm
Give the value, in units of °C, as a plain number.

Would you please look over these solved cases?
C[n+]1ccc(-c2c3nc(c(-c4cc[n+](C)cc4)c4ccc([nH]4)c(-c4cc[n+](C)cc4)c4ccc([nH]4)c(-c4cc[n+](C)cc4)c4nc2C=C4)C=C3)cc1 = 14.8
CC(C)/N=C(/NCCn1cc(-c2ccc3ccc4ccc(-c5cn(CCN/C(=N\C(C)C)NC(C)C)nn5)nc4c3n2)nn1)NC(C)C = 1.1
CC(C)/N=C(/NCCCn1cc(-c2ccc3ccc4ccc(-c5cn(CCCN/C(=N\C(C)C)NC(C)C)nn5)nc4c3n2)nn1)NC(C)C = 1.3

For "NCCCCn1cc(-c2ccc3ccc4ccc(-c5cn(CCCCN)nn5)nc4c3n2)nn1" the compound record lists ΔTm as 1.3

Recorded ΔTm (compound "NCCn1cc(-c2ccc3ccc4ccc(-c5cn(CCN)nn5)nc4c3n2)nn1" ): 0.6

The compound identified as "N=C(N)NCCCCn1cc(-c2ccc3ccc4ccc(-c5cn(CCCCNC(=N)N)nn5)nc4c3n2)nn1" registered its ΔTm at 3.7

The compound "N=C(N)NCCCn1cc(-c2ccc3ccc4ccc(-c5cn(CCCNC(=N)N)nn5)nc4c3n2)nn1" showed ΔTm equal to 2.8

// data source = ChEMBL document CHEMBL3108761
